target: Estrogen receptor (Homo sapiens) (UniProt P03372); test: Displacement of [3H]estradiol from full-length human estrogen receptor alpha assessed as relative binding affinity by radiometric assay relative to estradiol
Sequence (P03372 whole entry): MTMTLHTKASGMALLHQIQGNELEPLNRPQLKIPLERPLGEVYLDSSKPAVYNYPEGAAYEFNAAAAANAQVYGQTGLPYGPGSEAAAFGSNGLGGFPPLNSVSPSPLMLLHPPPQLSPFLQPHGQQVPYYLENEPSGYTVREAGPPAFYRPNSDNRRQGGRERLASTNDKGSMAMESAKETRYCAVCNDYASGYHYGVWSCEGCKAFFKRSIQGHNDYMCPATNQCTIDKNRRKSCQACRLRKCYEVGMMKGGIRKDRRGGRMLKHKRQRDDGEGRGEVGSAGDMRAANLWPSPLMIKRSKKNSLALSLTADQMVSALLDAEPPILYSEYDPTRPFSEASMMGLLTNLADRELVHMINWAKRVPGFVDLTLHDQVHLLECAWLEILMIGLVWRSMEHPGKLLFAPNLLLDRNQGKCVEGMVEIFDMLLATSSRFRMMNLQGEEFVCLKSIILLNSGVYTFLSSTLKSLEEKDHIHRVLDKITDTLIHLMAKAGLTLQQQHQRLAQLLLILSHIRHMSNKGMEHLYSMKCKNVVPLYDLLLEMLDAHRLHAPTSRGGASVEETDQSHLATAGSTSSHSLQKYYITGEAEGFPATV
Readings of relative binding affinity (RBA) for the listed compounds

chemicalString | relative binding affinity (RBA)
O=C(O)CC/C=C/c1ccc(C(=C2C3CCCC2CCC3)c2ccc(O)cc2)cc1 | 13.1
O=C(O)CCCC/C=C/c1ccc(C(=C2C3CCCC2CCC3)c2ccc(O)cc2)cc1 | 87.4
O=C(O)CCC/C=C/c1ccc(C(=C2C3CCCC2CCC3)c2ccc(O)cc2)cc1 | 38.5
COP(=O)(O)/C=C/c1ccc(C(=C2C3CCCC2CCC3)c2ccc(O)cc2)cc1 | 7.5
O=C(O)C/C=C/c1ccc(C(=C2C3CCCC2CCC3)c2ccc(O)cc2)cc1 | 9
Oc1ccc(C(=C2CCCCC2)c2ccc(O)cc2)cc1 | 68

====

molecular target: Estrogen receptor beta (Homo sapiens); experiment: Displacement of [3H]estradiol from full-length human estrogen receptor beta assessed as relative binding affinity by radiometric assay relative to estradiol
The following molecules are listed with their measured relative binding affinity (RBA) values.
readoutName: relative binding affinity (RBA)

chemicalString | systemName | readoutName | dataValue
Oc1ccc(C(=C2CCCCC2)c2ccc(O)cc2)cc1 | Estrogen receptor beta (Homo sapiens) | relative binding affinity (RBA) | 334
O=C(O)CC/C=C/c1ccc(C(=C2C3CCCC2CCC3)c2ccc(O)cc2)cc1 | Estrogen receptor beta (Homo sapiens) | relative binding affinity (RBA) | 24.6
O=C(O)CCCC/C=C/c1ccc(C(=C2C3CCCC2CCC3)c2ccc(O)cc2)cc1 | Estrogen receptor beta (Homo sapiens) | relative binding affinity (RBA) | 81.1
O=C(O)C/C=C/c1ccc(C(=C2C3CCCC2CCC3)c2ccc(O)cc2)cc1 | Estrogen receptor beta (Homo sapiens) | relative binding affinity (RBA) | 23.1
COP(=O)(O)/C=C/c1ccc(C(=C2C3CCCC2CCC3)c2ccc(O)cc2)cc1 | Estrogen receptor beta (Homo sapiens) | relative binding affinity (RBA) | 7.7
O=C(O)CCC/C=C/c1ccc(C(=C2C3CCCC2CCC3)c2ccc(O)cc2)cc1 | Estrogen receptor beta (Homo sapiens) | relative binding affinity (RBA) | 62.8

====

species: Homo sapiens; assay: Ratio of relative binding affinity for human ERbeta to relative binding affinity for human ERalpha
readoutName: Ratio

chemicalString | dataValue
O=C(O)CC/C=C/c1ccc(C(=C2C3CCCC2CCC3)c2ccc(O)cc2)cc1 | 1.9
COP(=O)(O)/C=C/c1ccc(C(=C2C3CCCC2CCC3)c2ccc(O)cc2)cc1 | 1
O=C(O)C/C=C/c1ccc(C(=C2C3CCCC2CCC3)c2ccc(O)cc2)cc1 | 2.6
O=C(O)CCC/C=C/c1ccc(C(=C2C3CCCC2CCC3)c2ccc(O)cc2)cc1 | 1.6
O=C(O)CCCC/C=C/c1ccc(C(=C2C3CCCC2CCC3)c2ccc(O)cc2)cc1 | 0.93
